- Format: in vivo, human
- Test Conditions: both, human, plasma, oral, 50 mg, Cτ, Cohort 2, dolutegravir 50 mg once daily alone, Period 1 (n = 16); geometric mean (95% CI)
Quantity Kind: concentration at 24 h (ng/mL)
One number for each entry, in ng/mL.

Would you kindly share the measured concentration at 24 h for C[C@@H]1CCO[C@H]2Cn3cc(C(=O)NCc4ccc(F)cc4F)c(=O)c(O)c3C(=O)N12 ? 1590

====

- Assay type: in vivo, human
- Test Conditions: both, human, plasma, oral, AUC0–τ, Cohort 2, dolutegravir 50 mg once daily + telaprevir 750 mg every 8 h, Period 2 (n = 15); geometric mean (95% CI)
Quantity Kind: AUC
Quick note: unit goes after the number.

Quick check: AUC of C[C@@H]1CCO[C@H]2Cn3cc(C(=O)NCc4ccc(F)cc4F)c(=O)c(O)c3C(=O)N12 [Dolutegravir] ? 84200 ng·h/mL
